# method-description: Kinetic assay of purified DAOCS with penicillin N as main substrate
# Assay type: biochemical
# run-conditions: for penicillin N; 0.5 μg purified DAOCS, 30° C., 10 minutes; triplicate, Hanes-Woolf Plot
assay-readout: Km (µM)
Unit µM implied. Number only.

IN: Give its Km value. Item: YS72: mutated penicillin expandase (DAOCS) with substitution C155Y (protein, UniProt P18548 1-311, looked up, variant C155Y) Deacetoxycephalosporin C …: MDTTVPTFSLAELQQGLHQDEFRRCLRDKGLFYLTDCGLTDTELKSAKDLVIDFFEHGSEAEKRAVTSPVPTMRRGFTGLESESTAQITNTGSYSDYSMCYSMGTADNLFPSGDFERIWTQYFDRQYTASRAVAREVLRATGTEPDGGVEAFLDYEPLLRFRYFPQVPEHRSAEEQPLRMAPHYDLSMVTLIQQTPCANGFVSLQAEVGGAFTDLPYRPDAVLVFCGAIATLVTGGQVKAPRHHVAAPRRDQIAGSSRTSSVFFLRPNADFTFSVPLARECGFDVSLDGETATFQDWIGGNYVNIRRTSKA
OUT: 16

Now turn to the next molecule.
IN: Give its Km value. Item: YS49: mutated penicillin expandase (DAOCS) with substitution L277K (protein, UniProt P18548 1-311, looked up, variant L277K) Deacetoxycephalosporin C …: MDTTVPTFSLAELQQGLHQDEFRRCLRDKGLFYLTDCGLTDTELKSAKDLVIDFFEHGSEAEKRAVTSPVPTMRRGFTGLESESTAQITNTGSYSDYSMCYSMGTADNLFPSGDFERIWTQYFDRQYTASRAVAREVLRATGTEPDGGVEAFLDCEPLLRFRYFPQVPEHRSAEEQPLRMAPHYDLSMVTLIQQTPCANGFVSLQAEVGGAFTDLPYRPDAVLVFCGAIATLVTGGQVKAPRHHVAAPRRDQIAGSSRTSSVFFLRPNADFTFSVPKARECGFDVSLDGETATFQDWIGGNYVNIRRTSKA
OUT: 11
